Target: UniProt:O60603
Sequence (O60603 whole entry): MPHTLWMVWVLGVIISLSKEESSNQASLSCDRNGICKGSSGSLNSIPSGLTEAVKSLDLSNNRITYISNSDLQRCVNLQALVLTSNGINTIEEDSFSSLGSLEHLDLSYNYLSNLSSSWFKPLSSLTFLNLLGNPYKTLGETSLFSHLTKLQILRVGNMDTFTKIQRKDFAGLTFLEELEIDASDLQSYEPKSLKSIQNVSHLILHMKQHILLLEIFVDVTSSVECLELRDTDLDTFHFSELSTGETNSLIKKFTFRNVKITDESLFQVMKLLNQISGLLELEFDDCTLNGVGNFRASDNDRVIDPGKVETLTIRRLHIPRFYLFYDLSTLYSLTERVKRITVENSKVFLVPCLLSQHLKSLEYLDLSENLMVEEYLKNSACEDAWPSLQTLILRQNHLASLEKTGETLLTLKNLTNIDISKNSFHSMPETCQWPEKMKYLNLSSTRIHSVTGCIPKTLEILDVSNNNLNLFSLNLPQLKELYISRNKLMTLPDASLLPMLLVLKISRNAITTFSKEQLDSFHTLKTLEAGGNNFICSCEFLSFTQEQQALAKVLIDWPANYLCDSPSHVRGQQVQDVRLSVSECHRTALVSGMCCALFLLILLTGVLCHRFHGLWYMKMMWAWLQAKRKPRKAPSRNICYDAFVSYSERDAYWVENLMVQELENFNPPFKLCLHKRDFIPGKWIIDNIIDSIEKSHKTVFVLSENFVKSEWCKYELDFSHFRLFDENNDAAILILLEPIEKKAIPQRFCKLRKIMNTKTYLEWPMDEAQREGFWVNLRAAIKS
Assay: Inhibition of TLR2-mediated IL-8 secretion in THP-1 cells
Type: functional, cell-based
Activity calls are given as the source filed them. No cut-off for these calls is given here. Residues, ends and D or L forms follow the SMILES beside them. *: point of attachment. X6 = CCCCCCCCCCCCCC(=O)N[C@@H](C*)C(=O)NCCCCCCCCCCCC; Myristoyl = CCCCCCCCCCCCCC(=O)*
readout-name: Activity

>>> test_value("CCCCCCCCCCCCCC(=O)N[C@@H](CSC[C@H](NC(=O)CCCCCCCCCCCCC)C(=O)N[C@@H](CO)C(=O)N[C@@H](CCCCN)C(=O)N[C@@H](CCCCN)C(=O)N[C@@H](CCCCN)C(=O)N[C@@H](CCCCN)C(N)=O)C(=O)NCCCCCCCCCCCC (Myristoyl-C(X6)SKKKK-NH2)")
"Active"
>>> test_value("CCCCCCCCCCCCCCNC(=O)[C@H](CSC[C@H](NC(=O)CCCCCCCCCCCCC)C(=O)N[C@@H](CO)C(=O)N[C@@H](CCCCN)C(=O)N[C@@H](CCCCN)C(=O)N[C@@H](CCCCN)C(=O)N[C@@H](CCCCN)C(N)=O)NC(=O)CCCCCCCCCCCCC")
"Active"
